Metric Name: melting point (°C)

> print(dat)
                                   molecule    metric.name  recorded.measurement
1  Cc1c2n(c3c(-c4ccc(F)cc4)cc(C#N)cc13)CCNC2=O [Example 162]  melting point                   292
2  Cc1c2n(c3c(-c4cc(F)cc(F)c4)cc(Cl)cc13)CCNC2=O [Example 99]  melting point                   241
3  N#Cc1cc(-c2ccnc(F)c2)c2c(c1)cc1n2CCCNC1=O [Example 220]  melting point                   275
4  Cc1c2n(c3c(-c4ccncc4)cc(C#N)cc13)CCCNC2=O [Example 250]  melting point                   285
5  N#Cc1cc(-c2ccc(Cl)cc2Cl)c2c(c1)cc1n2CCCNC1=O [Example 236]  melting point                   253

###

Entries annotated with measured EC (150% of control)
System: human embryonic stem cell derived neural stem cells (NSCs)
Test Summary: Neural Stem Cell Proliferation Assay (neurogenesis assay, ATP levels by CellTiterGlo)
Assay type: cell-based
Particulars: 96 h, compound concentration at which 150% activity of control (100%) is reached, NSC proliferation by ATP level after 4 days incubation, dose response 8 μM to 8 nM
I only need the number, in µM, no unit after it.

> print(dat)
                               smiles.entry  scale.unit  recorded.measurement
1     N#Cc1cc(-c2ccncc2)c2c(c1)cc1n2CCNC1=O          µM                 0.047
2  N#Cc1cc(-c2cccc(C(F)(F)F)c2)c2c(c1)cc1n2CCNC1=O          µM                   1.4
3  COc1ccc(-c2cc(Cl)cc3c(C)c4n(c23)CCNC4=O)cc1          µM                 0.008

Qu. Which value of EC (150% of control) has been reported for `O=C1NCCn2c1cc1cc(F)c(F)c(-c3ccc(F)cc3)c12` in the records?
Ans. 0.03

Qu. Entry to check: `Cc1c2n(c3c(-c4ccc(Cl)c(Cl)c4)cc(C#N)cc13)CCCNC2=O`
Ans. 0.2

Qu. Similarly, `Cc1ccc(-c2cc(C#N)cc3c(C)c4n(c23)CCNC4=O)cc1` ?
Ans. 0.035

Qu. And then `O=C1NCCn2c1cc1c(F)c(F)cc(-c3ccc(F)c(F)c3)c12` , what is it?
Ans. 2.6

Qu. What about `O=C1NCCCn2c1cc1cc(Cl)cc(-c3ccc(F)c(F)c3)c12` ?
Ans. 0.69

Qu. Follow-up entry: `Cc1c2n(c3c(-c4ccc(OC(F)(F)F)cc4)cc(C#N)cc13)CCNC2=O`
Ans. 0.014

Qu. How about this compound: `O=C1NCCCn2c1cc1cc(F)cc(-c3ccncc3)c12`
Ans. 0.037

Qu. Also need `N#Cc1cc(-c2cccnc2)c2c(c1)cc1n2CCNC1=O` , thanks.
Ans. 0.94

Qu. Next: `Cc1c2n(c3c(-c4ccc([N+](=O)[O-])cc4)cc(C#N)cc13)CCNC2=O`
Ans. 0.11

Qu. // query: `CS(=O)(=O)c1ccc(-c2cc(C#N)cc3cc4n(c23)CCNC4=O)cc1`
Ans. 0.24

Qu. Param item: `Cc1c2n(c3c(-c4ccncc4)cc(C#N)cc13)CCCNC2=O`
Ans. 0.15

Qu. Same for `Cc1ccc(-c2cc(F)cc3c(C)c4n(c23)CCNC4=O)cc1`
Ans. 0.014

Qu. Now the same for `O=C1NCCn2c1cc1cc(OC(F)(F)F)cc(-c3ccc(C(F)(F)F)cc3)c12`
Ans. 0.022
